Target: full length recombinant Pim-1 protein (Homo sapiens)
Construct: by full length recombinant Pim-1, Pim-2, or Pim-3 protein; hexahistidine tag followed by a thrombin cleavage site (N); made in house; host or cells: Sf9 (baculovirus) or E. coli (pET28)
Sequence (P11309 whole entry): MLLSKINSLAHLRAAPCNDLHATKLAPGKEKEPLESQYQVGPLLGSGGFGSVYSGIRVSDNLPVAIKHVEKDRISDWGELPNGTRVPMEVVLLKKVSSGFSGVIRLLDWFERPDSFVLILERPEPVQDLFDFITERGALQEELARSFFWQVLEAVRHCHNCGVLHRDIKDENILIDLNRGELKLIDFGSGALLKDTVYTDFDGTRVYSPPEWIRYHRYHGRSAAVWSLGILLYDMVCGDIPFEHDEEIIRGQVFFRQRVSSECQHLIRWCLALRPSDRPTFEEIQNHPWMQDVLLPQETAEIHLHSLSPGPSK
Test: Pim-1 enzyme assay (HTRF, phosphorylation of biotinylated-BAD (S112) peptide)
Format: biochemical
Details: enzyme assay, Pim-1; read-out: Pim_1_IC50
Protocol: These cDNAs were used as templates in PCR reactions to produce full-length DNA clones of the PIMs. […] This step was repeated 3× and the resin was transferred to a 2.5 cm glass column. […] Fractions were analyzed by SDS-PAGE and those containing the protein of interest were pooled and concentrated. […] The final buffer conditions were as follows: 60 mM Hepes, pH 7.0, 0.05% BSA, 2 mM DTT. […] For each plate, percent of control (POC) values were calculated for each well. […]
Metric: log10(IC50) (log10 of the value in nM)
Quick note: numbers are log10 of IC50, with nM as the unit.

Use the examples below as a reference point.
| Smiles structure | Tested system | Value |
| --- | --- | --- |
| NC1CCN(c2cncc(-c3n[nH]c4ccc(-c5cccc(F)c5F)cc34)n2)CC1 | full length recombinant Pim-1 protein (Homo sapiens) | 0.48 |
| CC(C)Oc1cncc(-c2ccc3[nH]cc(-c4ccc5cn[nH]c5c4)c3c2)n1 | full length recombinant Pim-1 protein (Homo sapiens) | 1.70 |
| c1cnnc(-c2ccc3[nH]nc(-c4cncc(O[C@@H]5CCCNC5)n4)c3c2)c1 | full length recombinant Pim-1 protein (Homo sapiens) | 0.78 |
| NC1CCN(c2cncc(-c3c[nH]c4ccc(-c5c(F)cccc5F)cc34)n2)CC1 | full length recombinant Pim-1 protein (Homo sapiens) | 0.30 |
| Fc1cccc(F)c1-c1ccc2[nH]cc(-c3cncc(O[C@H]4CCCNC4)n3)c2c1 | full length recombinant Pim-1 protein (Homo sapiens) | 1.65 |
| CCCCNC(=O)c1ccc(F)c(-c2ccc3[nH]nc(-c4cncc(N5CCC(N)CC5)n4)c3c2)c1 | full length recombinant Pim-1 protein (Homo sapiens) | 0.85 |
| Nc1cncc(-c2ccc3[nH]nc(-c4cncc(N5CCC(N)CC5)n4)c3c2)c1 | full length recombinant Pim-1 protein (Homo sapiens) | 0.00 |

We next turn to a different compound, shown below.
Recorded result, `NC1CCN(c2cncc(-c3n[nH]c4ccc(-c5cccc(F)c5)cc34)n2)CC1` , log10(IC50): 0.60

###

biological target: Pim-1 stably transfected into the U2OS human osteogenic sarcoma line (Homo sapiens, UniProt P11309); construct: expressed in transfected cells; host or cells: U2OS human osteogenic sarcoma line; test: Pim cell assay, phospho-BAD normalized against total BAD, U2OS stably transfected with Pim-1; assay type: cell-based; conditions: U2OS stably transfected with Pim-1; phospho-BAD normalized against total BAD; 29 min incubation; read-out: Pim1_Cell_IC50_
Sequence (P11309 whole entry): as above
Measured IC50 determines class: bottom bin: < 300 nM; middle bin: ≥ 300 nM and < 1000 nM; top bin: ≥ 1000 nM

Worked cases, answers included:
| Compound | Cat |
| --- | --- |
| NC1CCN(c2nc(O)cc(-c3n[nH]c4ccc(-c5c(F)cccc5F)cc34)n2)CC1 [Example 565] | top bin |
| FC(F)Oc1cccc(-c2ccc3[nH]cc(-c4cncc(O[C@@H]5CCCNC5)n4)c3c2)c1 [Example 344] | top bin |
| Oc1cc(N[C@@H]2CCCNC2)nc(-c2c[nH]c3ccc(-c4c(F)cccc4F)cc23)n1 [Example 515] | top bin |
| c1cc(OCC2CC2)ncc1-c1ccc2[nH]cc(-c3cncc(O[C@@H]4CCCNC4)n3)c2c1 [Example 323] | top bin |
| Cc1nccn1-c1cccc(-c2ccc3[nH]cc(-c4cncc(O[C@@H]5CCCNC5)n4)c3c2)n1 [Example 305] | middle bin |

Record CC(C)(O)CNc1cncc(-c2n[nH]c3ccc(-c4cncc(C5CC5)n4)cc23)n1 [Example 392] — which class?
bottom bin

Textbook exercise: identify the category of the compound given here, CC(C)OC(=O)c1ccc2[nH]nc(-c3cncc(N[C@@H]4CCCNC4)n3)c2c1 [Example 474] , according to its measured value.
bottom bin

Kindly identify the class of O=c1cc(-c2c[nH]c3ccc(-c4c(F)cccc4F)cc23)nc(N[C@@H]2CCCNC2)[nH]1 [Example 279] .
top bin

Hello team, could you let me know which band the following compound falls into: Fc1cnccc1-c1ccc2[nH]cc(-c3cncc(O[C@@H]4CCCNC4)n3)c2c1 [Example 297]
bottom bin

Returns: class label. Input: CC(C)n1cc(-c2ccc3[nH]cc(-c4cncc(O[C@@H]5CCCNC5)n4)c3c2)cn1 [Example 308]
bottom bin

For CC(C)OC(=O)c1ccc2[nH]nc(-c3cncc(O[C@@H]4CCCNC4)n3)c2c1 [Example 477] , which IC50 bin applies?
middle bin

Would you mind sorting CC(C)Oc1nc(-c2n[nH]c3ccc(-c4c(F)cccc4F)cc23)cc(=O)[nH]1 [Example 528] into the appropriate category?
middle bin

Which IC50 category applies to CC1(C)CNCCC1Oc1cncc(-c2n[nH]c3ccc(-c4c(F)cccc4F)cc23)n1 (single isomer, unassigned) [Example 432] here?
top bin

Assign a bin to c1cc2cc(-c3ccc4[nH]cc(-c5cncc(O[C@@H]6CCCNC6)n5)c4c3)cnc2[nH]1 [Example 336]
middle bin

Class (by measured IC50) for c1cc2[nH]nc(-c3cncc(O[C@@H]4CCNCC45CC5)n3)c2cc1-c1cncc(C2CC2)n1 [Example 373]
bottom bin

// bin(item) where item = NC1CCN(c2cc(O)nc(-c3n[nH]c4ccc(-c5c(F)cccc5F)cc34)n2)CC1 [Example 482]
top bin

###

molecular target: full length recombinant Pim-1 protein (Homo sapiens); construct: by full length recombinant Pim-1, Pim-2, or Pim-3 protein; hexahistidine tag followed by a thrombin cleavage site (N); made in house; host or cells: Sf9 (baculovirus) or E. coli (pET28); assay: Pim-1 enzyme assay (HTRF, phosphorylation of biotinylated-BAD (S112) peptide); assay type: biochemical; details: enzyme assay, Pim-1; read-out: Pim_1_IC50
Metric: pIC50
When answering, recall that pIC50 equals minus log10 of the concentration in mol/L, and write that number alone.

Below: 8 compounds and their reported pIC50.
| Compound | Tested system | pIC50 |
| --- | --- | --- |
| CS(=O)(=O)c1cccc(-c2ccc3[nH]nc(-c4cncc(N5CCC(N)CC5)n4)c3c2)c1 | full length recombinant Pim-1 protein (Homo sapiens) | 7.80 |
| CC(C)Oc1cncc(-c2ccc3[nH]cc(-c4cccc(N5CCCC5=O)n4)c3c2)n1 | full length recombinant Pim-1 protein (Homo sapiens) | 6.60 |
| NC1CCN(c2cncc(-c3n[nH]c4ccc(-c5cc([N+](=O)[O-])ccc5F)cc34)n2)CC1 | full length recombinant Pim-1 protein (Homo sapiens) | 8.05 |
| NC1CCN(c2cncc(-c3n[nH]c4ccc(-c5cc6ccccc6nc5Cl)cc34)n2)CC1 | full length recombinant Pim-1 protein (Homo sapiens) | 7.36 |
| COc1nc2ccccc2cc1-c1ccc2[nH]nc(-c3cncc(N4CCC(N)CC4)n3)c2c1 | full length recombinant Pim-1 protein (Homo sapiens) | 7.55 |
| c1cc2cc(-c3ccc4[nH]nc(-c5cncc(O[C@@H]6CCCNC6)n5)c4c3)cnc2[nH]1 | full length recombinant Pim-1 protein (Homo sapiens) | 8.52 |
| NC1CCN(c2cncc(-c3n[nH]c4ccc(-c5ccccc5O)cc34)n2)CC1 | full length recombinant Pim-1 protein (Homo sapiens) | 8.52 |
| NC1CCN(c2cncc(-c3n[nH]c4ccc(-c5cccc6c5C5(CCOCC5)CN6)cc34)n2)CC1 | full length recombinant Pim-1 protein (Homo sapiens) | 6.30 |

What the record says about `Cn1c(=O)cc(-c2ccc3[nH]nc(-c4cncc(N5CCC(N)CC5)n4)c3c2)c2ccccc21` : pIC50 is 7.62

pIC50 measured on `Fc1cccc(F)c1-c1ccc2[nH]nc(-c3cncc(N4CCOCC4)n3)c2c1` = 7.16

###

biological target: Pim-2 stably transfected into the U2OS human osteogenic sarcoma line (Homo sapiens); construct: expressed in transfected cells; host or cells: U2OS human osteogenic sarcoma line; assay: Pim cell assay, phospho-BAD normalized against total BAD, U2OS stably transfected with Pim-2; type: cell-based; conditions: U2OS cells stably transfected with Pim-2, phospho-BAD; high dose […]; read-out: Pim2_Cell_IC50; also: high dose 31.6 µM
Sequence (Q9P1W9 whole entry): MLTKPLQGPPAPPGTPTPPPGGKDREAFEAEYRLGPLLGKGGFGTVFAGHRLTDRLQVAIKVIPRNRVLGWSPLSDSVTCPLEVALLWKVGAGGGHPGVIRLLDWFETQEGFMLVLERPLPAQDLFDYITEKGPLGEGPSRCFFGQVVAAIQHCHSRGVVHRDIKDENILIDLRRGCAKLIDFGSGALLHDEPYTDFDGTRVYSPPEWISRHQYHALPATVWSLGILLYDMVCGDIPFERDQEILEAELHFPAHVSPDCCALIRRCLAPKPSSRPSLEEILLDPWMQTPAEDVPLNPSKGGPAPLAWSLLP
Listed here: items and their measured pIC50.
For clarity, pIC50 is expressed as the negative log10 of concentration in mol/L.

Below, 2 molecules whose answers are already recorded.
| Molecule | pIC50 |
| --- | --- |
| c1cc2[nH]nc(-c3cncc(O[C@@H]4CCCNC4)n3)c2cc1-c1cncc(C2CC2)n1 | 5.24 |
| C[C@H]1CCNC[C@@H]1Oc1cncc(-c2n[nH]c3ccc(-c4c(F)cccc4F)cc23)n1 [Example 195] | 5.12 |

Lab note: molecule `Fc1cccc(F)c1-c1ccc2[nH]cc(-c3cncc(N[C@@H]4CCNC4)n3)c2c1` tested on Pim-2 stably transfected into the U2OS human osteogenic sarcoma line (Homo sapiens); recorded pIC50 was 5.34
